Kindly supply the reported apparent KD of MS2 coat protein values for the records listed here.
Test system: MS2 coat protein
measurement protocol: apparent KD of MS2 coat protein; designed switch direction (-1 OFF switch, 1 ON switch): -1; higher = weaker reporter binding
stated conditions: input ligand: microRNA oligo, concentration not stated
Quick note: give the figure in nM, leave out the unit.

Input AAAAAAAACAAGCUUAGGGACAUGAGGAUCACCCAUGUUCGUCUUAUAAAAAUAAAAAUAAAAAACAAAAAAUAAAA [Sensor V2: 53] (Eterna round: R96, puzzle: Sensor v2, turn-off variant) . Output apparent KD of MS2 coat protein: 128

Input GAGGCAUGCUGAGGUCCACACAUGAGGAUCACCCAUGUAAUGACAAGCUUUUUCCUCGUCUUAUCGCUAUCGCGUUC [Dilaenla] (Eterna round: R96, puzzle: Sensor v3, turn-off variant 1) . Output apparent KD of MS2 coat protein: 22.2

Input UAGUUAAUCACAGGAUAUCGCCUCUUAUUACAUGAGGAUCACCCAUGUUUAGUUAGUUACAUGUUCGAGAAGGGUGUUGUAGUU [JR_ExcNG2_Sub042] (Eterna round: R96, puzzle: Exclusion NG 2) . Output apparent KD of MS2 coat protein: 408

Input UUGUUGUAUGUAGGAUAUGCAUAUUAUUAUUGUGCAGAAGGACAUGAGGAUCACCCAUGUAUAUUAUUAUUAUAUAUUAUAUAU [Title] (Eterna round: R96, puzzle: Exclusion NG 1) . Output apparent KD of MS2 coat protein: 27.2

Input UAUAUAUAGUAAGGAUAUGUAAUUCUUUUAUAAACAGAAGGUACUGACAUGAGGAUCACCCAUGUUUUAGUGUGGGCAUGUAGA [JMF's solution 34] (Eterna round: R96, puzzle: Exclusion NG 1) . Output apparent KD of MS2 coat protein: 53.1

Input GCAGCAACUCUAAUCAAUCCAACAUGAGGAUCACCCAUGUCUCAGGAUAUGGUCUGGAUUACAGGCCAGAAGGGAGAAAGCUGC [Eli exng3 - 046] (Eterna round: R96, puzzle: Exclusion NG 3) . Output apparent KD of MS2 coat protein: 7.62

Input CCUCUUGGGCAAGGAUAUCCUGUGCGGUUCCGGCUCGUGUCUGUCACAUGAGGAUCACCCAUGUGGGAGAAGGUGCCUGCGGUC [Design 80] (Eterna round: R96, puzzle: Exclusion NG 2) . Output apparent KD of MS2 coat protein: 10.7

Input UUUUUCUGGCAAGGAUAUCCUGUGCGGUUCCGGCUCGUGUCUGUUACAUGAGGAUCACCCAUGUGGGAGAAGGUGCCUGUGGUU [Design 88] (Eterna round: R96, puzzle: Exclusion NG 2) . Output apparent KD of MS2 coat protein: 26.9

Input UGAUCUAGCGGAGGAUAUACAUGAGGAUCACCCAUGUAGAUAAGUGUACCGUAGUGCACUAUUGUGUAGAAGGCCGCUAGAUCU [JL ENG2 3.64] (Eterna round: R96, puzzle: Exclusion NG 2) . Output apparent KD of MS2 coat protein: 9.35

Input UUUCGGCAUGUAGGAUAUGGAUCCGAUUAGGAUUUAGAAGGACAUGAGGAUCACCCAUGUGCAUUUAAUUAGUCAUUACCGUUU [EXclNG1-LROPPY07] (Eterna round: R96, puzzle: Exclusion NG 1) . Output apparent KD of MS2 coat protein: 42.8

Input AGAGAAAAUCUAGGAUAUGUGUAUGCCGCGUGCGCAGAAGGAGACAUGAGGAUCACCCAUGUAAAGAGACAGAAGACGACCAAA [Matt's Exclusion] (Eterna round: R96, puzzle: Exclusion NG 1) . Output apparent KD of MS2 coat protein: 38.7

Input UGUUGUUCCGAAGGAUAUGUAUGAGGAUCACCCAUAAGAGUUGAUGUACCAUGAGGAUCACCCAUGUAGAAGGUCGGGUUAACU [pwkr exNG2 2xF5 1xFMN.20] (Eterna round: R96, puzzle: Exclusion NG 2) . Output apparent KD of MS2 coat protein: 52.6
